So I've got a bunch of molecules here, and I need their IC50 values.
- Tested on: HCC1954
- experiment description: In vitro growth inhibition of PI3KCA amplified/mutant tumor cells HCC1954
- Format: cell-based
- recorded conditions: Homo sapiens; HCC1954; PI3KCA H1047R; HER2 amp; read-out: IC50 growth inhibition
Give bare numbers, in µM.

Record excerpt, results attached:
{"molecule": "CN1CCN(CCCOc2cc3nccc(Oc4ccc(NC(=O)Nc5cc(C(C)(C)C)n[nH]5)c(Cl)c4Cl)c3cc2C(N)=O)CC1 [Compound 95]", "IC50 (µM)": 0.00994}
{"molecule": "COc1cc2nccc(Oc3ccc(NC(=O)Nc4cc(C(C)(C)C)nn4C)c(Cl)c3Cl)c2cc1C(N)=O [Compound 38]", "IC50 (µM)": 0.0118}

Let us move to another entry and its IC50.
Value of measured IC50 for the entry COCCOc1cc2nccc(Oc3ccc(NC(=O)Nc4cc(C(C)(C)C)n[nH]4)c(Cl)c3)c2cc1NC(C)=O [Compound 66] : 0.0375

----------
- Test system: H1703 (PDGFRa amp)
- experiment description: In vitro growth inhibition of H1703 tumor cells (MTT/CCK8)
- Format: cell-based, Human
- recorded conditions: Homo sapiens, NCI-H1703; in vitro growth inhibition (or induction of apoptosis), cells cultured 3 to 5 days, MTT (CCK8); read-out: IC50 H1703 (PDGFRa amp)
Would you kindly list pIC50 for each of these compounds?
Numbers only, as −log10 of the molar value.

{"smi": "CC(C)(C)c1cc(NC(=O)Nc2ccc(Oc3ccnc4cc(OCCCN5CCN(c6ccccc6)CC5)c(C(N)=O)cc34)cc2Cl)[nH]n1", "value measured": 6.43}
{"smi": "CC(C)(C)c1cc(NC(=O)Nc2ccc(Oc3ccnc4cc(OCCN5CCCCC5)c(C(N)=O)cc34)c(Cl)c2Cl)[nH]n1", "value measured": 7.35}

Record COc1cc(Oc2ccnc3cc(OC)c(C(N)=O)cc23)ccc1NC(=O)Nc1cc(C(C)(C)C)on1 , field pIC50: 7.73

----------
Would you mind telling me the reported log10(IC50) of each entry?
- System: H1703 (PDGFRa amp)
- experiment description: In vitro growth inhibition of H1703 tumor cells (MTT/CCK8)
- Format: cell-based, Human
- recorded conditions: Homo sapiens, NCI-H1703; in vitro growth inhibition (or induction of apoptosis), cells cultured 3 to 5 days, MTT (CCK8); read-out: IC50 H1703 (PDGFRa amp)
Friendly reminder: values = log10 of IC50, unit nM.

{"compound": "CNC(=O)c1cc2c(Oc3ccc(NC(=O)Nc4cc(C(C)(C)C)nn4C)cc3C)ccnc2cc1OC [Compound 53]", "log10(IC50)": 1.81}
{"compound": "COc1cc2nccc(Oc3ccc(NC(=O)Nc4cc(C(C)(C)C)nn4C)c(Cl)c3Cl)c2cc1C(N)=O [Compound 38]", "log10(IC50)": 0.26}
{"compound": "COc1cc2nccc(Oc3ccc(NC(=O)Nc4cc(C(C)(C)C)n[nH]4)cc3C)c2cc1C(N)=O [Compound 35]", "log10(IC50)": 2.03}
{"compound": "COc1cc2nccc(Oc3ccc(NC(=O)Nc4cc(C(C)(C)C)no4)c(Cl)c3)c2cc1C(N)=O [Compound 13]", "log10(IC50)": 0.99}
{"compound": "CCC(=O)Nc1cc2c(Oc3ccc(NC(=O)Nc4cc(C(C)(C)C)on4)c(Cl)c3)ccnc2cc1OC [Compound 21]", "log10(IC50)": 2.20}
{"compound": "CNC(=O)c1cc2c(Oc3ccc(NC(=O)Nc4cc(C(C)(C)C)nn4C)c(Cl)c3)ccnc2cc1OCCOC [Compound 59]", "log10(IC50)": 0.91}
{"compound": "CNC(=O)c1cc2c(Oc3ccc(NC(=O)Nc4cc(C(C)(C)C)nn4C)cc3Cl)ccnc2cc1OC [Compound 55]", "log10(IC50)": 1.92}
{"compound": "COc1cc2nccc(Oc3ccc(NC(=O)N(C)c4cc(C(C)(C)C)on4)c(Cl)c3)c2cc1C(N)=O [Compound 12]", "log10(IC50)": 2.14}
{"compound": "CNC(=O)c1cc2c(Oc3ccc(NC(=O)Nc4cc(C(C)(C)C)nn4C)c(Cl)c3)ccnc2cc1OC [Compound 46]", "log10(IC50)": 0.94}
{"compound": "CCc1cc(NC(=O)Nc2cc(C(C)(C)C)n[nH]2)ccc1Oc1ccnc2cc(OC)c(C(N)=O)cc12 [Compound 106]", "log10(IC50)": 2.08}

Form field, log10(IC50) with H1703 (PDGFRa amp), item CNC(=O)c1cc2c(Oc3ccc(NC(=O)N4CCCC4)c(Cl)c3Cl)ccnc2cc1OCCOC [Compound 76] : 2.57
